Values from PubChem BioAssay AID1963966

Test system: 935938-334-R-J1-PDC spheroids with HUVEC/MSC, viability
experiment_description: Anticancer human tumor 935938-334-R-J1-PDC patient-derived small intestine adenocarcinoma cell line growth inhibition [PI3K]
details: curve of first compound; second compound 10 µM
attribute_measured: pIC50
One number for each entry, as −log10 of the molar value.

compound | target_system | pIC50
CC(=O)c1c(C)c2cnc(Nc3ccc(N4CCNCC4)cn3)nc2n(C2CCCC2)c1=O + CC(Nc1ncnc2nc[nH]c12)c1cc2cccc(Cl)c2c(=O)n1-c1ccccc1 | 935938-334-R-J1-PDC spheroids with HUVEC/MSC, viability | 7.31

We now examine a further compound.
Problem: Query the reported pIC50 for 935938-334-R-J1-PDC spheroids with HUVEC/MSC, viability; item: Cn1nccc1Nc1nccc(-c2ccn(C(CO)c3ccc(Cl)c(F)c3)c(=O)c2)n1 (stereo not drawn) + CC(Nc1ncnc2nc[nH]c12)c1cc2cccc(Cl)c2c(=O)n1-c1ccccc1
Result: 6.84

* * *

Tested on: 935938-334-R-J1-PDC spheroids with HUVEC/MSC, viability
experiment_description: Anticancer human tumor 935938-334-R-J1-PDC cell line growth inhibition [PI3K];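 note: compound exposure lasted seven days before viability was read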;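 for viability, T/C: percent of vehicle DMSO treated spheroid viability so 100% = untreated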
details: second compound 0.01 µM; first compound 0.1 µM; stronger effect = lower value
Define the label as met when viability, T/C is strictly less than 90% and as not met in all remaining cases.

compound | discrete_label
C[C@@H](NC(=O)c1ncnc(N)c1Cl)c1ncc(C(=O)Nc2cc(C(F)(F)F)c(Cl)cn2)s1 + COc1c(OCCCN2CCOCC2)ccc2c3n(c(=NC(=O)c4cnc(N)nc4)nc12)CCN3 | not met

Problem: Please let me know if CC(Cn1ccc(-c2ccc(C#N)c(Cl)c2)n1)NC(=O)c1cc(C(C)O)[nH]n1 (stereo not given) + CC(Nc1ccc2c(c1)OCCn1cc(N3C(=O)OCC3C(F)F)nc1-2)C(N)=O shows viability, T/C below 90%.
Result: met

Problem: Please let me know if Cn1ncc(Cl)c1-c1cc(C(=O)NC(CN)Cc2cccc(F)c2)sc1Cl (stereo not given) + COc1c(OCCCN2CCOCC2)ccc2c3n(c(=NC(=O)c4cnc(N)nc4)nc12)CCN3 shows viability, T/C below 90%.
Result: met

Problem: Please let me know if CC(Cn1ccc(-c2ccc(C#N)c(Cl)c2)n1)NC(=O)c1cc(C(C)O)[nH]n1 (stereo not given) + COc1c(OCCCN2CCOCC2)ccc2c3n(c(=NC(=O)c4cnc(N)nc4)nc12)CCN3 shows viability, T/C below 90%.
Result: not met

* * *

Test system: 935938-334-R-J1-PDC spheroids with HUVEC/MSC, viability
experiment_description: Anticancer human tumor 935938-334-R-J1-PDC cell line growth inhibition [PI3K];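 note: compound exposure lasted seven days before viability was read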;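 for viability, T/C: percent of vehicle DMSO treated spheroid viability so 100% = untreated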
details: second compound 0.01 µM; first compound 0.1 µM; stronger effect = lower value
Source text: Combinatorial screen of targeted agents with the PI3K inhibitors inavolisib, alpelisib, duvelisib, and copanlisib in multi-cell type tumor spheroids A high-throughput screen of multi-cell type tumor spheroids was designed to identify active combinations of targeted small molecules and PI3K pathway inhibitors. […] Compounds. […] If the clinical Cmax for an agent had not been determined, the highest concentration tested was 10 microM. […]
attribute_measured: viability, T/C (%)
Give bare numbers, in %.

# count of solved cases: 3
molecule | target_system | attribute_measured | reported
C#Cc1c(F)ccc2cc(O)cc(-c3ncc4c(N5CC6CCC(C5)N6)nc(OCC56CCCN5CC(F)C6)nc4c3F)c12 (centres undefined) + COc1c(OCCCN2CCOCC2)ccc2c3n(c(=NC(=O)c4cnc(N)nc4)nc12)CCN3 | 935938-334-R-J1-PDC spheroids with HUVEC/MSC, viability | viability, T/C | 86.4
CCN1CCN(Cc2ccc(Nc3ncc(F)c(-c4cc(F)c5nc(C)n(C(C)C)c5c4)n3)nc2)CC1 + COc1c(OCCCN2CCOCC2)ccc2c3n(c(=NC(=O)c4cnc(N)nc4)nc12)CCN3 | 935938-334-R-J1-PDC spheroids with HUVEC/MSC, viability | viability, T/C | 60.4
Cn1ncc(Cl)c1-c1cc(C(=O)NC(CN)Cc2cccc(F)c2)sc1Cl (centres undefined) + CC(Nc1ccc2c(c1)OCCn1cc(N3C(=O)OCC3C(F)F)nc1-2)C(N)=O | 935938-334-R-J1-PDC spheroids with HUVEC/MSC, viability | viability, T/C | 79.4

We now examine a further molecule.
Problem: viability, T/C lookup needed for Cn1nccc1Nc1nccc(-c2ccn(C(CO)c3ccc(Cl)c(F)c3)c(=O)c2)n1 (centres undefined) + COc1c(OCCCN2CCOCC2)ccc2c3n(c(=NC(=O)c4cnc(N)nc4)nc12)CCN3 , thanks.
Result: 77.8
